Protocol: self-splicing fitness, log relative to wild type (ln ratio); higher = more splicing; Tetrahymena group I intron in knt gene, E. coli kanamycin selection, DiMSum; sequences stand for … in CUCUCU…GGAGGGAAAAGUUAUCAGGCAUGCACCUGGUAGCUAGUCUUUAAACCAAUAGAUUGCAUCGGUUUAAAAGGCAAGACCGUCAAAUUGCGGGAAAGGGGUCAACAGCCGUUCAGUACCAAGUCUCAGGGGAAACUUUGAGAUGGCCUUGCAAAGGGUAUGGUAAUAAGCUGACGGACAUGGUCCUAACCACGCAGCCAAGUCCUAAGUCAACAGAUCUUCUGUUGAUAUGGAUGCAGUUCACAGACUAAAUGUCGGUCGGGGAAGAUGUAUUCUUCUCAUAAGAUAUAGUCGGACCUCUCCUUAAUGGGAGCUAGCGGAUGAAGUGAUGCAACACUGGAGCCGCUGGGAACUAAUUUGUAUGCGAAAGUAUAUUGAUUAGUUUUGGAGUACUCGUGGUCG;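 further: selection with 25 µg/mL kanamycin versus none on LB agar overnight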
Measurement Conditions: 30 °C
# cutoff -3 applies to self-splicing fitness (ln); >= gives Satisfied, < gives Not satisfied

Determine whether this sequence has self-splicing fitness (ln) no lower than -3: CAAGAGCAAUAUUACGUAUA
Not satisfied
